Consider the following compounds; for each one, report its IC (TGI).
System: OVCAR-8 (Ovarian cancer)
Experiment: NCI-60 screen (SRB, 48 h)
Details: Homo sapiens, OVCAR-8, 48 h, read-out: TGI
# value in µM; strip the unit string

### Prompt Query the reported IC (TGI) for OVCAR-8 (Ovarian cancer); item: `CC1(C)CC[C@]23CC[C@]4(C)[C@H](CC[C@@H]5[C@@]6(C)CCCNC(C)(C)[C@@H]6CC[C@]54C)[C@H]2[C@H]1OC3`
### Response 3.66

### Prompt Next record, please: `CC1(C)NCCC[C@]2(C)[C@H]3C=CC4=C5C[C@@](C)(CO)CC[C@]5(C)CC[C@@]4(C)[C@]3(C)CC[C@@H]12`
### Response 6.66

### Prompt Try this compound next: `CC1(C)CC[C@]2(CO)CC[C@]3(C)C(=CC[C@@H]4[C@@]5(C)CCCNC(C)(C)[C@@H]5CC[C@]43C)[C@@H]2C1`
### Response 15.6

---

Tested on: SF-268 (CNS cancer)
Assay: NCI-60 screen (SRB, 48 h)
Conditions: Homo sapiens, SF-268
readout kind: GI50
Kindly write the number and append the unit.

### Prompt Find the recorded GI50 belonging to `C[C@H]1[C@H](C)CC[C@]2(CO)CC[C@]3(C)C(=CC[C@@H]4[C@@]5(C)CCCNC(C)(C)[C@@H]5CC[C@]43C)[C@H]12` and report it.
### Response 1.79 µM

### Prompt And what about the molecule `C=C(C)[C@@H]1CC[C@]2(C(=O)N[C@H](CO)Cc3ccccc3)CC[C@]3(C)[C@H](CC[C@@H]4[C@@]5(C)CCCNC(C)(C)[C@@H]5CC[C@]43C)[C@@H]12` ?
### Response 1.56 µM

### Prompt Can you handle `C=C(C)[C@@H]1CCC=C2CC[C@]3(C)[C@H](CC[C@@H]4[C@@]5(C)CCCNC(C)(C)[C@@H]5CC[C@]43C)[C@H]21` next?
### Response 1.91 µM

### Prompt Next: `CC1(C)CC[C@]2(CO)CC[C@]3(C)C(=CC[C@@H]4[C@@]5(C)CCCNC(C)(C)[C@@H]5CC[C@]43C)[C@@H]2C1`
### Response 2.9 µM

### Prompt Item: C=C(C)C1CCC2(CO)CCC3(C)C(CCC4C5(C)CCCNC(C)(C)C5CCC43C)C12 (stereo not drawn)
### Response 1.74 µM

### Prompt Another molecule to look at: `C=C(C)[C@@H]1CC[C@]2(C)[C@H](C=CC3=C4C[C@@](C)(CO)CC[C@]4(C)CC[C@]32C)[C@@]1(C)CCCN`
### Response 1.61 µM

---

System: 786-0 (Renal cancer)
Would you kindly list GI50 for each of these compounds?
Numbers only here, please. The scale is nM.

### Prompt Return GI50 measured with 786-0 (Renal cancer) given this compound: C[C@H]1[C@H](C)CC[C@]2(C(=O)Nc3ccc4ncccc4c3)CC[C@]3(C)C(=CC[C@@H]4[C@@]5(C)CCCNC(C)(C)[C@@H]5CC[C@]43C)[C@H]12 [Compound 14]
### Response 1850

### Prompt Follow-up entry: Cc1ccc(S(=O)(=O)OC[C@]23CCC(C)(C)C[C@H]2C2=CC[C@@H]4[C@@]5(C)CCCNC(C)(C)[C@@H]5CC[C@@]4(C)[C@]2(C)CC3)cc1 [Compound 15]
### Response 1850

### Prompt Try C[C@H]1[C@H](C)CC[C@]2(CO)CC[C@]3(C)C(=CC[C@@H]4[C@@]5(C)CCCNC(C)(C)[C@@H]5CC[C@]43C)[C@H]12 [Compound 4, azepanouvaol] next.
### Response 1600
